Biological target: KDM7B (PHF8, JHDM1F) dual domain (PHD-JmjC) (UniProt Q9UPP1-2 1-447)
Sequence (Q9UPP1 37-483): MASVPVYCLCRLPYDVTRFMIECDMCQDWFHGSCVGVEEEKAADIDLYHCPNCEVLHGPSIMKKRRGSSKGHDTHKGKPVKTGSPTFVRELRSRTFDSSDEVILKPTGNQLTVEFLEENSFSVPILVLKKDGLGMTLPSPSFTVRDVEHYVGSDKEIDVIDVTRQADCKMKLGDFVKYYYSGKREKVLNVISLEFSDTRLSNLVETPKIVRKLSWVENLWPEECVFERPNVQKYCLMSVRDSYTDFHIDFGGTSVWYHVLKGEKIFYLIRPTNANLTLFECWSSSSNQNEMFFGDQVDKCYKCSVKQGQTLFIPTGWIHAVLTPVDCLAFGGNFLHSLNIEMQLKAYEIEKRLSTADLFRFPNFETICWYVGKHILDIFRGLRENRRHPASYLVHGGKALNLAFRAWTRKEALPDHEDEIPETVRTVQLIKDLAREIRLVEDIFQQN
Bridge positions count the residues as written; N and C are the ends. Ends that are not written are not given here.
Observable: IC50 (nM)
One number for each entry, in nM.

Prompt: Quick one: IC50 for {CH2CO}-YYLTHPYPSVFRTC (thioether N-14) [OC9, de novo cyclic peptide from mRNA display] ?
Response: 100

Numbers sourced from paper PMC10321576.
